Ref: ChEMBL document CHEMBL3396993

target-desc: Amine oxidase [flavin-containing] A (Homo sapiens)
Sequence (P21397 whole entry): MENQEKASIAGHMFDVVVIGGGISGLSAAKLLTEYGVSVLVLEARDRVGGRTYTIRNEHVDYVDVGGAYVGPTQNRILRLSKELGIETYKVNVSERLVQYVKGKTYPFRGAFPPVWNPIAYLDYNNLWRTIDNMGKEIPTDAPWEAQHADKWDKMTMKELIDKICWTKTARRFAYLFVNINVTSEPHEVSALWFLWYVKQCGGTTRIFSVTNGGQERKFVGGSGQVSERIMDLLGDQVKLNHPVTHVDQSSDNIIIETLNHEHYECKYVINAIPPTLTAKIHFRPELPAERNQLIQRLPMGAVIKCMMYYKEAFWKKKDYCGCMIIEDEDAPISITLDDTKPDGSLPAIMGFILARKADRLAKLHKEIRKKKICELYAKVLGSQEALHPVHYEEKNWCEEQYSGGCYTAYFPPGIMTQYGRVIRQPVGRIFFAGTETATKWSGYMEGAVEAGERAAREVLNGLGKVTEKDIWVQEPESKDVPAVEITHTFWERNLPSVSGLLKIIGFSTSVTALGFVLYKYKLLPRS
assay-overview: Inhibition of human recombinant MAO-A assessed as kynuramine substrate by Lineweaver-Burk plot analysis
metric: Ki

I am curious: what Ki value has been reported for Cc1ccc(-c2[nH]c3cc(C#N)c(C#N)cc3c2Cl)cc1 ?
18 nM

====

target-desc: Amine oxidase [flavin-containing] A (Homo sapiens, UniProt P21397)
pIC50: −log10 of the molar value.
Label fulfilled when pIC50 is at or above 7; otherwise label not fulfilled.

# example entries with known answers
compound-string | group
Cn1c(-c2cccs2)c(Cl)c2cc(C#N)c(C#N)cc21 | fulfilled
N#Cc1cc2c(Br)c(-c3ccccc3)n(O)c2cc1C#N | not fulfilled
COc1ccc(-c2[nH]c3cc(C#N)c(C#N)cc3c2Cl)cc1 | fulfilled
N#Cc1ccc(OCc2ccc(Br)cc2)cc1C#N | fulfilled
Cc1ccc(-c2[nH]c3cc(C#N)c(C#N)cc3c2Cl)cc1 | fulfilled

Dear colleague, could you confirm whether COc1ccc(-c2c(Br)c3cc(C#N)c(C#N)cc3n2O)cc1 has pIC50 at or above 7?
not fulfilled

Dear colleague, could you confirm whether Cc1ccc(-c2c(Br)c3cc(C#N)c(C#N)cc3n2O)cc1 has pIC50 at or above 7?
not fulfilled

Dear colleague, could you confirm whether COc1ccc(-c2c(Br)c3cc(C#N)c(C#N)cc3n2OC)cc1 has pIC50 at or above 7?
not fulfilled

Dear colleague, could you confirm whether Cc1ccc(-c2c(Cl)c3cc(C#N)c(C#N)cc3n2C)cc1 has pIC50 at or above 7?
not fulfilled

====

target-desc: Amine oxidase [flavin-containing] B (Homo sapiens)
Sequence (P27338 whole entry): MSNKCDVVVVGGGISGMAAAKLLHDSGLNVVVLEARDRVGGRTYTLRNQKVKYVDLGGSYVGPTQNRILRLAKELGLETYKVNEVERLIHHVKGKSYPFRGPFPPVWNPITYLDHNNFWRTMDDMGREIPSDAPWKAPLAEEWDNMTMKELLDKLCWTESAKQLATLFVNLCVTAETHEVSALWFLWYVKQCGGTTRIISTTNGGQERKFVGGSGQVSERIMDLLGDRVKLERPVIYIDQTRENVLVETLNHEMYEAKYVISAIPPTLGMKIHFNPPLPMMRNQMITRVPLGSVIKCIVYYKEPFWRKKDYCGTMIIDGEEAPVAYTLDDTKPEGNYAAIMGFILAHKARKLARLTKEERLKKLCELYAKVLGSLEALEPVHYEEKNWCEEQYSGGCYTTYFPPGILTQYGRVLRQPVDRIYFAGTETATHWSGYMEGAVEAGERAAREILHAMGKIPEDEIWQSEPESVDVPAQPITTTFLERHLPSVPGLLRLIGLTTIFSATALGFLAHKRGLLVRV
assay-overview: Inhibition of human recombinant MAO-B assessed as kynuramine substrate by Lineweaver-Burk plot analysis
metric: Ki (nM)
Express the result in nM but write the number alone.

I am curious: what Ki value has been reported for Cc1ccc(-c2[nH]c3cc(C#N)c(C#N)cc3c2Cl)cc1 ?
16

====

A short record of IC50 observed with Amine oxidase [flavin-containing] A (Homo sapiens) follows.
Express the result in nM but write the number alone.

Here is how some molecules turned out for IC50.
compound-string | target-desc | units-text | IC50
N#Cc1cc2[nH]c(-c3ccccc3)c(Cl)c2cc1C#N | Amine oxidase [flavin-containing] A (Homo sapiens) | nM | 121
N#Cc1cc2[nH]c(-c3cccs3)c(Cl)c2cc1C#N | Amine oxidase [flavin-containing] A (Homo sapiens) | nM | 118
COc1ccc(-c2c(Cl)c3cc(C#N)c(C#N)cc3n2C)cc1 | Amine oxidase [flavin-containing] A (Homo sapiens) | nM | 129

From here, focus on the item given below.
Checklist item: IC50 tested on Amine oxidase [flavin-containing] A (Homo sapiens), entry Cn1c(-c2ccccc2)c(Cl)c2cc(C#N)c(C#N)cc21 , value?
142
